- EXPERIMENTAL_SYSTEM: wild type human RORγt LBD (Homo sapiens)
- Construct: expressed in transfected cells; host or cells: HEK293T
- TEST_NAME: RORγt Reporter Assay (GAL4-RORγt LBD luciferase in HEK293T cells)
- Assay type: cell-based
- CONDITION_SUMMARY: HEK-293T, read-out: RORγt reporter Assay, % inhibition @ 6 µM, @ 6 µM; HEK293T cells
Known inhibition at 6 µM of a selection of compounds
Express the result in % but write the number alone.

CN(C)c1nc2ccc(C(O)(c3ccncc3)c3ccccn3)cc2c(Cl)c1-c1ccccc1 (stereo not shown) : 93
Cn1cncc1C(O)(c1ccc(C(F)(F)F)nc1)c1ccc2nc(OCC(F)(F)F)c(-c3ccccc3)c(Cl)c2c1 (stereo not shown) : 102
Cc1nc(C)c(C(O)(c2ccc3nc(C#N)c(-c4ccccc4)c(C#N)c3c2)c2cnnn2C)s1 (single isomer, unassigned) [Example 47b] : 80
Cn1cncc1C(c1ccc(Cl)cc1)c1ccc2nc(C#N)c(-c3ccccc3)c(Cl)c2c1 (stereo not shown) : 100
CON(C)c1nc2ccc(C(O)(c3ccc(Cl)cc3)c3cncn3C)cc2c(Cl)c1-c1ccccc1 (stereo not shown) : 99

q: For OC(c1ccccc1)(c1ccncc1)c1ccc2nc(Cl)c(-c3ccccc3Cl)c(Cl)c2c1 (stereo not shown) , what is its reported inhibition at 6 µM?
a: 80

q: Fill in: inhibition at 6 µM of CSc1nc2ccc(C(O)(c3sc(C)nc3C)c3cncn3C)cc2c(SC)c1-c1ccccc1 (stereo not shown) is ___
a: 103

###

Known Kd of a selection of molecules
- EXPERIMENTAL_SYSTEM: wild type human RORγt ligand binding domain (RORγt LBD) (Homo sapiens, UniProt P51449)
- Construct: His-tag (N); TurboTEV protease cleavage site (ENLYFQG) (N)
- Sequence (P51449 269-508 limits assumed): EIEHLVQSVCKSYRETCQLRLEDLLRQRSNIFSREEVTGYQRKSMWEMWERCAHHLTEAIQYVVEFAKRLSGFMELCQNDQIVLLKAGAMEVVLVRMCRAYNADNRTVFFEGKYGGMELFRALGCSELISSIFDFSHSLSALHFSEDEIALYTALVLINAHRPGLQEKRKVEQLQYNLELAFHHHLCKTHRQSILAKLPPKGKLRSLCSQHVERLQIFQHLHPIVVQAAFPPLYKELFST
- TEST_NAME: RORγt ThermoFluor® Assay (thermal shift, binding affinity)
- CONDITION_SUMMARY: pH 7.0, estimated from concentration response curves
- Protocol: This approach is applicable to a wide variety of systems, and rigorous in theoretical interpretation through quantitation of equilibrium binding constants (KD). […] Bar-coded assay plates are robotically loaded onto a thermostatically controlled PCR-type thermal block and then heated at a typical ramp-rate of 1 °C/min for all experiments. […] Images were collected at each temperature, and the sum of the pixel intensity in a given area of the assay plate was recorded versus temperature. […]
State just the number; it will be interpreted in nM.

Solved entries:
Cc1nc(C)c(C(O)(c2ccc3nc(C#N)c(-c4ccccc4)c(C#N)c3c2)c2cnnn2C)s1 (single isomer, unassigned) [Example 47b] : 930
CCOc1nc2ccc(C(O)(c3cccnc3)c3cccc(Cl)c3)cc2c(OCC)c1-c1ccccc1 (centres unmarked) : 14000
COc1nc2ccc(C(O)(c3cncn3C)C3CCN(C(C)=O)CC3)cc2c(C#N)c1-c1cccc(C(F)(F)F)c1 (single isomer, unassigned) [Example 2b] : 130
COc1nc2ccc(C(O)(c3ncccn3)c3cncn3C)cc2c(OC)c1-c1ccccc1 (centres unmarked) : 20000

q: Query the reported Kd for wild type human RORγt ligand binding domain (RORγt LBD) (Homo sapiens, UniProt P51449); item: Cn1cncc1C(O)(c1ccc(C#N)cc1)c1ccc2nc(C(F)(F)F)c(-c3ccccc3)c(C#N)c2c1 (centres unmarked)
a: 46
